Tested on: HIV-1 Y188L mutant
assayText: microbe, parasite or virus in culture
Assay type: cell-based, human immunodeficiency virus type 1 (HIV-1)
cond: Human immunodeficiency virus 1, HeLa, read-out: EC50 mutant Y188L
measureName: EC50

Cc1cc(-c2cn[nH]c2)cc(C)c1Oc1nc(Nc2ccc(C#N)cc2)nc2ccn(C)c12
1 to 10 nM
Cc1cc(-c2ccc(S(N)(=O)=O)cc2)cc(C)c1Oc1nc(Nc2ccc(C#N)cc2)nc2ncn(C)c12
> 10 nM
Cc1cc(-c2ccncc2C#N)cc(C)c1Oc1nc(Nc2ccc(C#N)cc2)nc2ccn(C)c12
> 10 nM

Measured EC50, `Cc1cc(-c2ccc(C(N)=O)cn2)cc(C)c1Oc1nc(Nc2ccc(C#N)cc2)nc2ncn(C)c12` : 1 to 10 nM

---

Reported EC50 by item:
Tested on: HIV-1 K103N-L100I mutant
assayText: microbe, parasite or virus in culture
Assay type: cell-based, human immunodeficiency virus type 1 (HIV-1)
cond: read-out: EC50 mutant K103N-L100I; mutant K103N-L100I

Cc1cc(-c2ccncc2C#N)cc(C)c1Oc1nc(Nc2ccc(C#N)cc2)nc2ccn(C)c12 [Example 5]
< 1 nM

Simply: Cc1cc(-c2ccncc2C#N)cc(C)c1Oc1nc(Nc2ccc(C#N)cc2)nc2ccn(C)c12 [Example 23] , HIV-1 K103N-L100I mutant, EC50 = > 10 nM

---

Reported EC50 by item:
Test system: HIV-1 Y188L mutant
assayText: microbe, parasite or virus in culture
Assay type: cell-based, human immunodeficiency virus type 1 (HIV-1)
cond: Human immunodeficiency virus 1, HeLa, read-out: EC50 mutant Y188L

Measured EC50, Cc1cc(-c2cc(C)c(Oc3nc(Nc4ccc(C#N)cc4)nc4ccn(C)c34)c(C)c2)ccn1 [Example 8] : > 0.01 µM

Measured EC50, Cc1cc(-c2ccc(C(N)=O)cc2)cc(C)c1Oc1nc(Nc2ccc(C#N)cc2)nc2ncn(C)c12 [Example 111] : > 0.01 µM

Measured EC50, Cc1cc(-c2ccc(C(N)=O)cc2F)cc(C)c1Oc1nc(Nc2ccc(C#N)cc2)nc2ccn(C)c12 [Example 50] : > 0.01 µM

---

Tested on: HIV-1 Y188L mutant
assayText: microbe, parasite or virus in culture
Format: cell-based, human immunodeficiency virus type 1 (HIV-1)
cond: Human immunodeficiency virus 1, HeLa, read-out: EC50 mutant Y188L
pEC50: −log10 of the molar value.
Reported pEC50 by item:

// below: answered compounds
Cc1cc(-c2ccncc2)cc(C)c1Oc1nc(Nc2ccc(C#N)cc2)nc2ccn(C)c12
8.00 to 9.00
Cc1cc(-c2cccc(C#N)c2)cc(C)c1Oc1nc(Nc2ccc(C#N)cc2)nc2ccn(C)c12
< 8.00
Cc1cc(-c2ccc(C(N)=O)cn2)cc(C)c1Oc1nc(Nc2ccc(C#N)cc2)nc2ccn(C)c12
8.00 to 9.00
Cc1cc(-c2ccc(C(N)=O)cc2)cc(C)c1Oc1nc(Nc2ccc(C#N)cc2)nc2nc[nH]c12
8.00 to 9.00
Cc1cc(-c2cccc(C#N)n2)cc(C)c1Oc1nc(Nc2ccc(C#N)cc2)nc2ccn(C)c12
< 8.00

Measured pEC50, `Cc1cc(-c2ccnc(F)c2)cc(C)c1Oc1nc(Nc2ccc(C#N)cc2)nc2ccn(C)c12` : < 8.00

Measured pEC50, `Cc1cc(-c2ccc(S(N)(=O)=O)cc2)cc(C)c1Oc1nc(Nc2ccc(C#N)cc2)nc2nc[nH]c12` : < 8.00

Measured pEC50, `Cc1cnccc1-c1cc(C)c(Oc2nc(Nc3ccc(C#N)cc3)nc3ccn(C)c23)c(C)c1` : < 8.00

---

Test system: HIV-1 Y188L mutant
assayText: microbe, parasite or virus in culture
Format: cell-based, human immunodeficiency virus type 1 (HIV-1)
cond: Human immunodeficiency virus 1, HeLa, read-out: EC50 mutant Y188L
Reported EC50 by item:

Measured EC50, `Cc1cc(-c2ccc(C(N)=O)cc2)cc(C)c1Oc1nc(Nc2ccc(C#N)cc2)nc2ccn(C)c12` : 0.001 to 0.01 µM

Measured EC50, `Cc1cc(-c2ccncc2)cc(C)c1Oc1nc(Nc2ccc(C#N)cc2)nc2nc[nH]c12` : 0.001 to 0.01 µM

Measured EC50, `Cc1cc(-c2ccnc(C#N)c2)cc(C)c1Oc1nc(Nc2ccc(C#N)cc2)nc2ccn(C)c12` : > 0.01 µM

Measured EC50, `Cc1cc(-c2ccncc2F)cc(C)c1Oc1nc(Nc2ccc(C#N)cc2)nc2ccn(C)c12` : > 0.01 µM
